Reported IC50 values are given for each entry in this list.
# Target Or Test System: BaF3 (EGFR Del19/C797S) (Homo sapiens, UniProt P00533, C797S, cells depend on it, form not given)
# Construct: BaF3 (EGFR Del19/C797S)|DC|RPMI1640 + 10% FBS
# Sequence (P00533 with tags, fused parts or gaps DEL746-750/C797S, form open): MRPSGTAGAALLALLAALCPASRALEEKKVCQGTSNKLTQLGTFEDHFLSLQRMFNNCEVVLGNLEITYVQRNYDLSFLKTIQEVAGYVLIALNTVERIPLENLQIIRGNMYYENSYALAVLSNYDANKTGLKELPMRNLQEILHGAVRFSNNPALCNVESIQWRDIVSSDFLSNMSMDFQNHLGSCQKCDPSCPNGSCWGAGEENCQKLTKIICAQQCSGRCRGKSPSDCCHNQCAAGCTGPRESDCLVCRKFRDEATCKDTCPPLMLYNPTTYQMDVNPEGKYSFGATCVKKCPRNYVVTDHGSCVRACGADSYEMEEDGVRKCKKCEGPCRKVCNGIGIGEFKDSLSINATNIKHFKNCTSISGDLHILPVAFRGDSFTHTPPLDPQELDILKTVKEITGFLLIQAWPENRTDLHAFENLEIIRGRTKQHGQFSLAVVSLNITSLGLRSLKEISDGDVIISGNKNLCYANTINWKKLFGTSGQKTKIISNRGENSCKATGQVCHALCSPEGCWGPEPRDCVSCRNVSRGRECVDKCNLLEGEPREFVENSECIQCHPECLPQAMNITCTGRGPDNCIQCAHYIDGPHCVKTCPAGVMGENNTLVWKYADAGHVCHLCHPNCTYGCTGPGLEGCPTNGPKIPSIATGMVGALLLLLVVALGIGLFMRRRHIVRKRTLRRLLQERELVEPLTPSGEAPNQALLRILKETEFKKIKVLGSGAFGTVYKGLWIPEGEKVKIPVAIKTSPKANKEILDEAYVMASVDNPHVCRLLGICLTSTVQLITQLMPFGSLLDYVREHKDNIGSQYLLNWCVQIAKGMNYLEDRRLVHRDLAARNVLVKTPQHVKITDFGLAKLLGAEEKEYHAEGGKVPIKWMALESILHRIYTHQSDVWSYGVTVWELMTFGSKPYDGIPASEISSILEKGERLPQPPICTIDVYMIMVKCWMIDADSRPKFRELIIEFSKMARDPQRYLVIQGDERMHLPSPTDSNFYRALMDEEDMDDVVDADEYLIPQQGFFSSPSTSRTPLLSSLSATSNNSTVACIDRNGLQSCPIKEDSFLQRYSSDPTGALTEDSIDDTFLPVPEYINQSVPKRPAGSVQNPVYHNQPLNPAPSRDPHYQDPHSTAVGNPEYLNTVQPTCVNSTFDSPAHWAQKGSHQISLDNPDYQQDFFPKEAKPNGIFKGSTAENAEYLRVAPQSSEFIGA
# Method Description: Cell proliferation IC50 assay (Cell Titer GLO), BaF3 DC cells
# Type: cell-based, mouse
# Applied Conditions: Table 6, 72 h

Compound	IC50, nM
CCc1cc(Nc2ncc(-c3cnn(C)c3)c(Nc3ccccc3P(C)(C)=O)n2)c(OC)cc1N1CCC(N2Cc3ccc(Oc4cccc5c4CN(C4CCC(=O)NC4=O)C5=O)cc3C2)CC1 (stereo not drawn)	2.4
CCc1cc(N2CCC(N3CCN(CCCCOc4cccc5c4CN(C4CCC(=O)NC4=O)C5=O)CC3)CC2)c(CC)cc1Nc1nc(Nc2ccccc2P(C)(C)=O)c2cc[nH]c2n1 (stereo not drawn)	26.3
CCc1cc(Nc2ncc(Cl)c(Nc3ccccc3P(C)(C)=O)n2)c(OC)cc1N1CCC2(CCN(C(=O)COc3cccc4c3CN(C3CCC(=O)NC3=O)C4=O)CC2)CC1 (stereo not drawn)	9.1
